Origin of the recorded values: the supplement of paper PMC6992640

Test system: HCI13 (cells of an ER-positive luminal breast cancer xenograft);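 also: PDX cells carrying CMV promoter-driven luciferase, viability read as total photon flux per second by IVIS imaging following D-luciferin, vehicle control 0.1% DMSO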
Assay: cell viability (% of vehicle); higher = less cytotoxic
Settings: 10 µM; 72 h
Cut-off 100 on cell viability: below means criterion met, at or above means criterion not met.

The examples below pair each entry with its known result.
molecule	assigned.label
CC=C1NC(=O)C2CSSCCC=CC(CC(=O)NC(C(C)C)C(=O)N2)OC(=O)C(C(C)C)NC1=O (configuration not stated) [Romidepsin (FK228, depsipeptide)]	criterion met
O=C(O)[C@H](O)[C@@H](O)C(=O)O.c1cnc2cc3c(cc2n1)C1CNC[C@@H]3C1 [Varenicline Tartrate]	criterion not met
Cc1c(O)cccc1C(=O)NC(CSc1ccccc1)C(O)CN1CC2CCCCC2CC1C(=O)NC(C)(C)C (configuration not stated)	criterion met
CC(C[N+](C)(C)C)OC(N)=O.[Cl-] (configuration not stated) [Bethanechol chloride]	criterion not met
COc1cc(C(=O)NS(=O)(=O)c2ccccc2C)ccc1Cc1cn(C)c2ccc(NC(=O)OC3CCCC3)cc12	criterion not met
C=CC(=O)N1CCCC(n2nc(-c3ccc(Oc4ccccc4)cc3)c3c(N)ncnc32)C1 (configuration not stated)	criterion met

*Q* Lab note: confirm whether the reported cell viability for this molecule is below 100, equality not counting. molecule: CC(C)CC(N)=O [Isovaleramide]
*A* criterion not met

----------
Tested on: UCD52 (cells of a triple-negative basal-like breast cancer xenograft)
Test: cell viability of combination (% of vehicle); higher = less cytotoxic
Details: 1 µM; 72 h; partner dose: 10 nM
readout.type: cell viability of combination
Answer as a number with no unit attached.

compound	cell viability of combination
CN1CCN(c2ccc(C(=O)/N=c3\[nH][nH]c4ccc(Cc5cc(F)cc(F)c5)cc34)c(NC3CCOCC3)c2)CC1 [Entrectinib] + CC(C)C[C@H](NC(=O)[C@H](CCc1ccccc1)NC(=O)CN1CCOCC1)C(=O)N[C@@H](Cc1ccccc1)C(=O)N[C@@H](CC(C)C)C(=O)[C@@]1(C)CO1	45
CCN1CCN(Cc2ccc(Nc3ncc(F)c(-c4cc(F)c5nc(C)n(C(C)C)c5c4)n3)nc2)CC1.CS(=O)(=O)O + CC(C)C[C@H](NC(=O)[C@H](CCc1ccccc1)NC(=O)CN1CCOCC1)C(=O)N[C@@H](Cc1ccccc1)C(=O)N[C@@H](CC(C)C)C(=O)[C@@]1(C)CO1	64.9

*Q* What does the data say about its cell viability of combination? Entry: C#Cc1cccc(Nc2ncnc3cc(OCCOC)c(OCCOC)cc23)c1 [Erlotinib] + CC(C)C[C@H](NC(=O)[C@H](CCc1ccccc1)NC(=O)CN1CCOCC1)C(=O)N[C@@H](Cc1ccccc1)C(=O)N[C@@H](CC(C)C)C(=O)[C@@]1(C)CO1
*A* 49.1

*Q* What does the data say about its cell viability of combination? Entry: COc1cc2c(Nc3ccc(Br)cc3F)ncnc2cc1OCC1CCN(C)CC1 [Vandetanib (ZD6474)] + CC(C)C[C@H](NC(=O)[C@H](CCc1ccccc1)NC(=O)CN1CCOCC1)C(=O)N[C@@H](Cc1ccccc1)C(=O)N[C@@H](CC(C)C)C(=O)[C@@]1(C)CO1
*A* 39.4

*Q* What does the data say about its cell viability of combination? Entry: C=C1C(=CC=C2CCCC3(C)C2CCC3C(C)CCCC(C)(C)O)CC(O)CC1O (stereo not drawn) [Calcitriol] + CC(C)C[C@H](NC(=O)[C@H](CCc1ccccc1)NC(=O)CN1CCOCC1)C(=O)N[C@@H](Cc1ccccc1)C(=O)N[C@@H](CC(C)C)C(=O)[C@@]1(C)CO1
*A* 38.4
